system: PC-3 prostate; assay: NCI-60 one-dose screen, 48 h; details: 10 µM unless noted
The panel holds about 83,000 compounds, 20% with a hit somewhere; the sample as a whole holds those more often. Active and inactive are the calls of the source. How the source made its calls: active means growth percent below 10; inactive means the rest.
Returns: one label drawn from label 1 = active, label 0 = inactive

Solved entries (count: 5):
| Compound | Category |
| --- | --- |
| CN(CCC#N)c1ccc(/C=C(\C#N)c2cccc(C(F)(F)F)c2)cc1 | label 0 |
| CCOC(=O)NNc1[nH]c(-c2ccc(OC)cc2)cc1C#N | label 0 |
| C/C=C(/C)C(=O)OC1C=C(CO)C(=O)C(OC(=O)C(C)(O)C(C)Cl)C1C(C)C (stereo unspecified) | label 1 |
| Clc1ccc(N/N=C(/c2ccccc2)c2ccccn2)nc1 | label 0 |
| COC(=O)c1cc(=O)nc(N/N=C/c2ccccc2O)s1 | label 0 |

Continue with the next compound.
Request: What is the recorded call for this compound in the test? COc1ccc2c(c1)/C(=C1/S/C(=N/c3nnc(C)s3)NC1=O)C(=O)N2Cc1ccc(Br)cc1
Response: label 0

====

system: A498 renal; test: NCI-60 one-dose screen, 48 h; details: 10 µM unless noted
Compounds without any hit were thinned out: in the full panel of roughly 83,000, 20% have a hit. The source made the active and inactive calls. How the source made its calls: active means growth percent below 10; inactive means the rest.
Form entry, call: pick from yes (1) (active), no (0) (inactive)

| Molecule | System Under Test | Category |
| --- | --- | --- |
| c1ccc(C(=NNc2nc3ccccc3o2)c2ccccn2)nc1 | A498 renal | yes (1) |
| CC1(C)NC(=S)NC1=O | A498 renal | no (0) |
| COc1cc(-c2c3c(cn2CCN2CCCCC2)-c2oncc2CC3)cc(OC)c1OC | A498 renal | no (0) |
| CCCCN(CCCC)CC(O)CN(CC)CC (stereo unspecified) | A498 renal | no (0) |
| Oc1ccccc1/C=N/N=C/c1c(O)ccc2ccccc12 | A498 renal | no (0) |
| CCCCCCCCCCCCCCCCNC(=O)Nc1ccc(C)c(NC(=O)NCCCCCCCCCCCCCCCC)c1 | A498 renal | no (0) |
| CCCCCCCCCCC(C[N+](C)(C)C/C=C/c1ccccc1)C(O)c1ccccc1 (stereo unspecified) | A498 renal | no (0) |
| CCOC(=O)C(C)C(C)(O)c1ccccc1 (stereo unspecified) | A498 renal | no (0) |
| CCOC(=O)c1c(C)oc2ncnc(Nc3ccc(NC(=O)Nc4ccc(CC)cc4)cc3)c12 | A498 renal | no (0) |
| CCN(CC)CCCC(C)Nc1c(C)cnc2cc(Cl)c(C)cc12 (stereo unspecified) | A498 renal | no (0) |

Request: Assay outcome for CC([C@H]1CCC2C3CCC4C[C@@H](N)CC[C@]4(C)C3CC[C@@]21C)N(C)C (stereo partly specified) : what was it?
Response: no (0)

Request: Given COc1ccc2oc(=O)cc(CN3C(=O)S/C(=C\c4ccc(Cl)cc4)C3=O)c2c1 , state the outcome it received in this test.
Response: no (0)

Request: In this assay, the call recorded for CC(C)(C)c1ccc(OCCOC(=O)CBr)cc1 was what?
Response: no (0)

Request: Can you look up the reported call for O=[N+]([O-])c1ccc(-c2ncc(-c3ccc(O)cc3O)[nH]2)cc1 for me?
Response: no (0)

Request: Which outcome was entered for the molecule O=c1c2c(c3ccccc3n1-c1ccccc1)NC(=S)NC2c1ccccc1 (stereo unspecified) in this test?
Response: no (0)
